molecular target: endogenous TSHR on Graves' orbital fibroblasts (GOFs) (Homo sapiens) (UniProt P16473); experiment: flow cytometry; settings: Flow: DPBS, 5 mM MgCl2, 4.5 g/L glucose, 0.1 mg/mL yeast tRNA, 1 mg/mL BSA, 4 C 30 min; SPR: DPBS, 5 mM Mg2+, pH 7.4, 25 C
Sequence (P16473 21-764): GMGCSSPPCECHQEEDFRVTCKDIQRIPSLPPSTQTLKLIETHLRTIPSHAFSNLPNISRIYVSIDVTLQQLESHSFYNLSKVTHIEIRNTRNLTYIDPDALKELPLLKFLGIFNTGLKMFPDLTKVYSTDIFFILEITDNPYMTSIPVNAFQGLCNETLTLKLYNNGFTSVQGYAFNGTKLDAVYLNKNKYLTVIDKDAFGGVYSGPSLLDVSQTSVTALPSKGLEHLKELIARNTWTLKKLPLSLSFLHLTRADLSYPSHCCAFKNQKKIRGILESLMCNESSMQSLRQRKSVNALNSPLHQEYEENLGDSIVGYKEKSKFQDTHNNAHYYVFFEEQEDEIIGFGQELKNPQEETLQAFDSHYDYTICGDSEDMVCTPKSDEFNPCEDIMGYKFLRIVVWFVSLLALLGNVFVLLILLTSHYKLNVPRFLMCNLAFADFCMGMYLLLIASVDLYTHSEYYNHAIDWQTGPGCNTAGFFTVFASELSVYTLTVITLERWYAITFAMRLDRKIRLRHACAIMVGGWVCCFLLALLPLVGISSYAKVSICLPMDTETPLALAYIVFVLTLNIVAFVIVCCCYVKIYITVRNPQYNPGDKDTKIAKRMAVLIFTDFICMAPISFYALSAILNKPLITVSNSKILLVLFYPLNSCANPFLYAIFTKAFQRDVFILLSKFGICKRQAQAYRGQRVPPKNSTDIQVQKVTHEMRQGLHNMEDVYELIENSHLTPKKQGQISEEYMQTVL
quantity: pKd
The meaning of pKd here: minus log10 of the concentration in molar units.

Item ACCGACCGTGCTGGACTCAGATGAACAATCGATGGAAGATTGGGTCGCACCGGCCTCTTTCACTATGAGCGAGCCTGGCG [YC3] has what recorded pKd?
7.00
